Molecular target: T1, human Protein S (human, UniProt P07225 42-676)
T1 construct: Called 'full length Protein S' / 'human full-length Protein S'; It was coated on plates (ELISA), Eu-labeled (LANCE) or immobilized on a chip (Biacore); also called PS; full length Protein S
T1 sequence: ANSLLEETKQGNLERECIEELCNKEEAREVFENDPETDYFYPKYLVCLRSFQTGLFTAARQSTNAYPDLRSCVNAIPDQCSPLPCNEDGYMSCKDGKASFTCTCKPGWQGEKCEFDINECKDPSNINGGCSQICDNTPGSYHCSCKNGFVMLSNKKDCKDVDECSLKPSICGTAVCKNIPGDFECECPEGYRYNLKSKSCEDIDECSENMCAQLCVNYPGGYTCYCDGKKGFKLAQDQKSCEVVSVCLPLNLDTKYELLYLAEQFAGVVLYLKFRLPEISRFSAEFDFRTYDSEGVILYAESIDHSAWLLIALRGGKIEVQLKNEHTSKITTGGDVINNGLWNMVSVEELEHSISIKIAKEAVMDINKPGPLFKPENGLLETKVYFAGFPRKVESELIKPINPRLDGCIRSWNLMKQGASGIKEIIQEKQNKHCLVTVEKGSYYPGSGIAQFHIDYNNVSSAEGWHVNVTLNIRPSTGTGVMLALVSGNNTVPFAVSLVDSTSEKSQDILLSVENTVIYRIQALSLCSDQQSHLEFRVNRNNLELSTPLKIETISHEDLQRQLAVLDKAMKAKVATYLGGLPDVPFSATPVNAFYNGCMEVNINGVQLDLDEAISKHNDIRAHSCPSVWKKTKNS
Assay: Biacore (SPR), Protein S immobilized
Non-standard residues stand in square brackets, D forms with d. 400Mal‑PEG = 40 kD PEG moiety attached via maleimide; Cys(Me-400MA) = not defined here
For each record, check the reported koff: if it is below 0.0003 s⁻¹ write 1, else write -1.

Strictly below 0.0003 s⁻¹: is that where koff of Ac-AIYVTAGWYDYNNDTYYEFT-NH2 [JBS3283] sits?
-1

Strictly below 0.0003 s⁻¹: is that where koff of Ac-EYYVSAGWYDYNTDTYYEFEC-NH2 (not fully specified (residue 21), Tetramer of JBS3319 monomers with a four arm 10 kD PEG moiety) [JBS3321] sits?
1

Strictly below 0.0003 s⁻¹: is that where koff of Ac-EYYVSAGWYDYNTDTYYEFE-NH2 [JBS3216] sits?
1

Strictly below 0.0003 s⁻¹: is that where koff of Ac-EYYVSAGWYDYNTDTYYEFEC(400Mal‑PEG)-NH2 (JBS3319 conjugated to a 40 kD PEG moiety) [JBS3318] sits?
1

Strictly below 0.0003 s⁻¹: is that where koff of Ac-TGLVSAGWYDYNFDHYREFTC-NH2 (not fully specified (residue 21); also: tetramer: four peptides on a 40 kD four-arm PEG core) [JBS3179] sits?
1

Strictly below 0.0003 s⁻¹: is that where koff of Ac-EYIVTAGWYDYNKDIYYEFK[Cys(Me-400MA)]-NH2 (reading uncertain, JBS3206 monomer comprising a 40 kD PEG moiety) [JBS3322] sits?
1

Strictly below 0.0003 s⁻¹: is that where koff of Ac-EYIVTAGWYDYNKDIYYEFK-NH2 [JBS3263] sits?
1

Strictly below 0.0003 s⁻¹: is that where koff of Ac-HWYVSAGWYDYNEDKYYEFE-NH2 [JBS3306] sits?
-1
